- ASSAY NOTES: optical density change of DRC41 E. coli – strain DRC41, OD650, 24 h, E. coli filamentation project, primary screen (AID 1093);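 also: MC1000 strain lacking acrAB efflux and sulA so SOS filamentation is blocked; test concentration not given here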
- EXPERIMENTAL CONDITIONS: E. coli DRC41 growth, higher = more signal, called active from +8 up or from −8 down
Overview of reported z-score across a group of molecules:
Form: value (number only, do not type unit).

Known z-score results, listed for orientation:
COC(=O)C(CC#Cc1ccc2c(c1)[C@]1(C(=O)N2)[C@H](c2ccccc2OCCO)N2[C@H](c3ccccc3)[C@H](c3ccccc3)OC(=O)[C@H]2[C@@H]1C(N)=O)C(=O)OC; 1.13
CC(C)[Si](C#C[Si](C(C)C)(C(C)C)C(C)C)(O[C@H](C)c1cn(Cc2ccccc2)nn1)C(C)C; 1.32
CC(C)(C)OC(=O)CC[C@@]1(C(=O)N2CCCCC2)N=C(c2ccc(OCCCO)cc2)O[C@@H]1c1ccccc1; -0.223

Query :: Identify measured z-score corresponding to O=C(CS)NCCCCCNC(=O)[C@H]1C[C@H]2C(=O)NCC(=O)N2[C@H]1c1cccc(OCCO)c1
Result :: 0.663
